Test system: gamma secretase cleavage of NotchΔE (constitutively active rat Notch1 construct ZEDN1)
Experiment: Notch signaling assay for selective inhibitors of gamma secretase (4xwtCBF1 Luciferase reporter gene co-transfected with NotchΔE ZEDN1)
Assay type: cell-based
Conditions: 'the above assay' (reporter gene based Notch signaling assay), ranges stated as 'from about'
pIC50: −log10 of the molar value.
QUANTITY MEASURED: pIC50

Returns the measured pIC50 for the input molecule. Input: O=C1NCCCCC1N(Cc1cccn1S(=O)(=O)c1ccccc1)S(=O)(=O)c1ccc(Cl)cc1 (stereo not shown) [Compound 206]
< 6.00

Returns the measured pIC50 for the input molecule. Input: O=C1NCCCC[C@H]1N(Cc1ccc2ccccc2c1)S(=O)(=O)c1ccc(Cl)cc1 [Compound 227]
7.00 to 7.60

Returns the measured pIC50 for the input molecule. Input: O=C(NCc1cccnc1)c1ccc(CN([C@@H]2CCCCNC2=O)S(=O)(=O)c2ccc(Cl)cc2)cc1 [Compound 593]
7.60 to 10.00

Returns the measured pIC50 for the input molecule. Input: O=C1NCCCC[C@H]1N(Cc1ccc(C(=O)N(Cc2cccnc2)Cc2cccnc2)cc1)S(=O)(=O)c1ccc(Cl)cc1 [Compound 613]
< 6.00

Returns the measured pIC50 for the input molecule. Input: O=C1NCCCCC1N(Cc1ccc(Br)s1)S(=O)(=O)c1ccc(Cl)cc1 (stereo not shown) [Compound 160]
6.00 to 7.00

Returns the measured pIC50 for the input molecule. Input: CCN(C(=O)c1ccc(CN([C@@H]2CCCCNC2=O)S(=O)(=O)c2ccc(Cl)cc2)cc1)C1CCCCC1 [Compound 609]
6.00 to 7.00

Returns the measured pIC50 for the input molecule. Input: CC(C)CNC(=O)c1ccc(CN([C@@H]2CCCCNC2=O)S(=O)(=O)c2ccc(Cl)cc2)cc1 [Compound 486]
7.00 to 7.60

Returns the measured pIC50 for the input molecule. Input: O=C1NCCCC[C@H]1N(Cc1ccc(-c2nnc(-c3ccccc3)o2)cc1)S(=O)(=O)c1ccc(Cl)cc1 [Compound 672]
< 6.00

Returns the measured pIC50 for the input molecule. Input: O=C1NCC[C@H]1N(Cc1ccc(F)cc1F)S(=O)(=O)c1ccc(Cl)cc1 [Compound 148]
< 6.00

Returns the measured pIC50 for the input molecule. Input: CC[C@@H](NC(=O)c1ccc(CN([C@@H]2CCCCNC2=O)S(=O)(=O)c2ccc(Cl)cc2)cc1)c1ccccc1 [Compound 553]
7.00 to 7.60

Returns the measured pIC50 for the input molecule. Input: O=C(NCc1ccccc1OC(F)(F)F)c1ccc(CN([C@@H]2CCCCNC2=O)S(=O)(=O)c2ccc(Cl)cc2)cc1 [Compound 579]
6.00 to 7.00

Returns the measured pIC50 for the input molecule. Input: O=C1NCCCCC1N(Cc1ccc2c(c1)OCO2)S(=O)(=O)c1ccc(Cl)cc1 (stereo not shown) [Compound 249]
7.60 to 10.00

Returns the measured pIC50 for the input molecule. Input: COC(=O)c1ccc(CN([C@@H]2CCCCNC2=O)S(=O)(=O)c2ccc(Cl)cc2)cc1 [Compound 275]
7.60 to 10.00

Returns the measured pIC50 for the input molecule. Input: O=C(CCCc1ccccc1)Nc1ccc(CN([C@@H]2CCCCNC2=O)S(=O)(=O)c2ccc(Cl)cc2)cc1F [Compound 505]
6.00 to 7.00

Returns the measured pIC50 for the input molecule. Input: COc1ccc(CN(C2CCCCNC2=O)S(=O)(=O)c2ccc(C(C)(C)C)cc2)cc1OC (stereo not shown) [Compound 14]
< 6.00

Returns the measured pIC50 for the input molecule. Input: O=C1NCCCC[C@H]1N(CCCOCc1ccccc1)S(=O)(=O)c1ccc(Cl)cc1 [Compound 89]
< 6.00
